These data points were gathered from patent US20160185837A1.

Hi there, I'd appreciate the recorded cAMP EC50 for every entry that follows.
Target: T1, mouse GIP receptor (mouse, UniProt Q0P543 19-460)
T1 sequence (looked up): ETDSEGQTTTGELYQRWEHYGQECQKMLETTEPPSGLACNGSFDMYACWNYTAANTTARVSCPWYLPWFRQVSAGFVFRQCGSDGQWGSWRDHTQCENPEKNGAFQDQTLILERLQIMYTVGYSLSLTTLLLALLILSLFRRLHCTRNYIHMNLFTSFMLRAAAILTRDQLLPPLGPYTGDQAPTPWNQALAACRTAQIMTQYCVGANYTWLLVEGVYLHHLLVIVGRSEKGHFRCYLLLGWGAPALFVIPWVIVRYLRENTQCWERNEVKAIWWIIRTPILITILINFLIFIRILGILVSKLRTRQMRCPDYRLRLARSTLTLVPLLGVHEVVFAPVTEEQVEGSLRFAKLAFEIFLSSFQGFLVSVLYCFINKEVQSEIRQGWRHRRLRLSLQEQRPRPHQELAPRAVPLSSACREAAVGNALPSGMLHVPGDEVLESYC
Assay: cell-based or functional assay
Quick reminder: number only, in nM, skip the unit.

What value of cAMP EC50 has been recorded for this entry: IP087 (Fc fusion) YSEGTFTSDYSKLLEEEAVRLFIEWLLAGPAAAGGSGSTASSGSGSATGGGGAATHTCPPCPAPEF
5.7

Would you mind telling me what cAMP EC50 value was observed for IP382 (Fc fusion) YSEGTFTSLYSKLLEEEAVRLFIEYLLAGGGGGGSGGGGSGGGGSGGGGSATHTCPPC ?
6.5

I would be grateful if you could share the reported cAMP EC50 for IP266 (Fc fusion) YSEGTFTSDYSKLLEEEAVRLFIEWLLAGAPPGGSGGGGSGGGGSGGGGSATHTCPPCPAPEF .
0.3
